Measured MIC on Staphylococcus epidermidis (PCI 1200, ATCC12228) follows.

Cc1nc(-c2ccc(-c3ccc(Cl)cc3Cl)o2)[nH]c1-c1ccccc1: 3 to 10 µg/mL
Cc1[nH]c(-c2ccc(-c3ccccc3OC(F)(F)F)o2)nc1-c1ccc(F)cc1: 20 to 50 µg/mL
FC(F)(F)Oc1ccccc1-c1ccc(-c2nc(Cl)c(-c3ccccc3)[nH]2)o1: 20 to 50 µg/mL
CN(C)Cc1[nH]c(-c2ccc(-c3ccccc3C(F)(F)F)o2)nc1-c1ccccc1: 11 to 201 µg/mL

[Q] Endpoint output: MIC of Cc1[nH]c(-c2ccc(-c3ccc(OC(F)(F)F)c(Cl)c3)o2)nc1-c1ccc(Cl)cc1 . Value?
[A] 20 to 50 µg/mL

[Q] Next record, please: Cc1[nH]c(-c2ccc(-c3ccc(C(F)(F)F)c(Cl)c3)o2)nc1-c1ccc(F)cc1
[A] 11 to 201 µg/mL

[Q] Next record, please: Cc1[nH]c(-c2ccc(-c3ccc(C(F)(F)F)cc3)o2)nc1-c1ccccc1
[A] 3 to 10 µg/mL

[Q] Next record, please: Cc1nc(-c2ccc(-c3cccc(Cl)c3)o2)[nH]c1-c1ccccc1
[A] 3 to 10 µg/mL

[Q] Next record, please: Cc1[nH]c(-c2ccc(-c3cccc(F)c3C)o2)nc1-c1ccccc1
[A] 20 to 50 µg/mL

[Q] Next record, please: Cc1[nH]c(-c2ccc(-c3ccc(C(F)(F)F)cc3)o2)nc1-c1ccc(Cl)cc1
[A] 3 to 10 µg/mL

[Q] Next record, please: Cc1nc(-c2ccc(-c3cccc(OC(F)(F)F)c3)o2)[nH]c1-c1ccc(F)cc1
[A] 20 to 50 µg/mL

[Q] Next record, please: FC(F)(F)Oc1ccccc1-c1ccc(-c2nc(-c3ccc(Cl)cc3Cl)c[nH]2)o1
[A] 3 to 10 µg/mL

[Q] Next record, please: Cc1[nH]c(-c2ccc(-c3ccc(Cl)c(C(F)(F)F)c3)o2)nc1-c1ccccc1
[A] 1 to 3 µg/mL

[Q] Next record, please: Cc1nc(-c2ccc(-c3cccc(OC(F)(F)F)c3)o2)[nH]c1-c1ccccc1
[A] 20 to 50 µg/mL

[Q] Next record, please: Cc1[nH]c(-c2ccc(-c3ccccc3OC(F)(F)F)o2)nc1Cc1ccc(Br)cc1
[A] 11 to 201 µg/mL

[Q] Next record, please: Cc1[nH]c(-c2ccc(-c3ccccc3C(F)(F)F)o2)nc1-c1ccccc1
[A] 20 to 50 µg/mL

[Q] Next record, please: Cc1[nH]c(-c2ccc(-c3ccccc3OC(F)(F)F)o2)nc1-c1ccccc1
[A] 3 to 10 µg/mL

###

test system: Staphylococcus aureus MRSA (COL); assay: broth microdilution MIC assay, Staphylococcus aureus MRSA (COL); format: cell-based; conditions: Staphylococcus aureus, MRSA, 24 h, read-out: Antibacterial activity Staphylococcus aureus (MRSA)
ATTRIBUTE MEASURED: MIC

Cc1nc(-c2ccc(-c3ccc(O)cc3)o2)[nH]c1-c1ccccc1 [Compound 150]: 11 to 201 µg/mL
Cc1nc(-c2ccc(-c3ccc(F)c(F)c3)o2)[nH]c1-c1ccccc1 [Compound 153]: 3 to 10 µg/mL
Cc1[nH]c(-c2ccc(-c3ccccc3OC(F)(F)F)o2)nc1-c1ccccc1 [Compound 18]: 3 to 10 µg/mL

[Q] Endpoint output: MIC of Cc1nc(-c2ccc(-c3ccc(F)cc3)o2)[nH]c1-c1ccccc1 [Compound 148] . Value?
[A] 3 to 10 µg/mL

[Q] Next record, please: Cc1nc(-c2ccc(-c3cccc4[nH]ccc34)o2)[nH]c1-c1ccccc1 [Compound 138]
[A] 11 to 201 µg/mL

###

Measured MIC on Staphylococcus epidermidis (PCI 1200, ATCC12228) follows.

These solved cases illustrate the format of a correct answer.
Cc1ccccc1-c1c[nH]c(-c2ccc(-c3ccccc3OC(F)(F)F)o2)n1: 20 to 50 µg/mL
Cc1[nH]c(-c2ccc(-c3ccc(OC(F)(F)F)cc3)o2)nc1-c1ccc(Cl)cc1: 11 to 201 µg/mL

Shifting focus to the compound that follows.
[Q] Endpoint output: MIC of Cc1nc(-c2ccc(-c3ccc(Cl)cc3C(F)(F)F)o2)[nH]c1-c1ccccc1 . Value?
[A] 3 to 10 µg/mL

###

tested on: Human hepatocytes (HepaRG cells); assay: human cytotoxicity assay in vitro (CellTiter-Glo), hepatocytes; assay type: cell-based; details: cytotoxicity class
Collected cytotoxicity cell line H (hepatocytes) values appear next to each entry.
The reply should be a number, written without any unit.

These solved cases illustrate the format of a correct answer.
Cc1ccccc1-c1cnc(-c2ccc(-c3ccccc3C(F)(F)F)o2)[nH]1 [Compound 69]: 2
Cc1[nH]c(-c2cc(C)n(-c3ccc(F)c(F)c3F)c2C)nc1-c1ccccc1 [Compound 10]: 3
Cc1nc(-c2ccc(-c3cc(F)ccc3C(F)(F)F)o2)[nH]c1-c1ccccc1 [Compound 31a]: 2
Cc1ccc(-c2ccc(-c3nc(-c4ccccc4)c(C)[nH]3)o2)cc1 [Compound 52]: 3
Cc1[nH]c(-c2cc(C)n(-c3ccc(F)cc3F)c2C)nc1-c1ccccc1 [Compound 9]: 3

[Q] Endpoint output: cytotoxicity cell line H (hepatocytes) of Cc1[nH]c(-c2ccc(-c3cc(C(F)(F)F)ccc3Cl)o2)nc1-c1ccccc1 [Compound 40] . Value?
[A] 2

[Q] Next record, please: FC(F)(F)Oc1ccccc1-c1ccc(-c2nc(Cl)c(-c3ccccc3)[nH]2)o1 [Compound 64]
[A] 3

[Q] Next record, please: Cc1ccccc1-c1c[nH]c(-c2ccc(-c3ccccc3OC(F)(F)F)o2)n1 [Compound 66]
[A] 3

###

system: Human hepatocytes (HepaRG cells); test: human cytotoxicity assay in vitro (CellTiter-Glo), hepatocytes; assay type: cell-based; conditions: cytotoxicity class
ATTRIBUTE MEASURED: cytotoxicity cell line H (hepatocytes)
The reply should be a number, written without any unit.

COc1ccc(-c2ccc(-c3nc(C)c(-c4ccccc4)[nH]3)o2)c(C(F)(F)F)c1: 3

[Q] Find the measured cytotoxicity cell line H (hepatocytes): item Cc1[nH]c(-c2ccc(-c3ccccc3OC(F)(F)F)o2)nc1-c1ccc(F)cc1 , target or system Human hepatocytes (HepaRG cells).
[A] 3

[Q] Next record, please: Cc1[nH]c(-c2ccc(-c3ccc(OC(F)(F)F)cc3)o2)nc1-c1ccc(Cl)cc1
[A] 2

[Q] Next record, please: Cc1nc(-c2ccc(-c3ccc(Cl)cc3C(F)(F)F)o2)[nH]c1-c1ccccc1
[A] 2
